Provide the recorded pKd for the entries that follow.
- target_desc: SNX27, Q96L92
- test_description: holdup assay
- Design: key: below the threshold = too weak to quantify, mostly under pKd 3.1 to 4
- test_conditions: plain residues with an end cap or a label only (N-terminal biotin on a linker: ado-ado)
Output: the number by itself.

Requested field: pKd. Item: SPDRDRESIV [SCN5A, Q14524] 5.26

Requested field: pKd. Item: NTANRRTTPV [CACNG2, Q9Y698] 4.99

Requested field: pKd. Item: RQKEVRESKC [SCN8A, Q9UQD0] 5.19

Requested field: pKd. Item: GTGYDRKDYV [CLDN3, O15551] 3.68

Requested field: pKd. Item: DGVNEKVSCV [HTR2A, P28223] 5.15

Requested field: pKd. Item: AAVENKVTDL [PLXNB1, O43157] 4.12

Requested field: pKd. Item: SLNANEVEWF [RNF130, Q86XS8] 3.94
